Known inhibition of a selection of compounds
Target: Rho-associated protein kinase 1 (Homo sapiens);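 further: values are mean percent inhibition of ROCK1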
Conditions: at 0.1 µM
recorded_endpoint: inhibition (%)

• C#Cc1cccc(Nc2ncnc3ccc(OCCCCNCCS(C)(=O)=O)cc23)c1 = 1.86
• COc1cc(Nc2ncc(-c3ccccc3)o2)cc(OC)c1OC = 0.49
• COC(=O)Nc1nc2ccc(Sc3ccc(NC(=O)Nc4cc(C(F)(F)F)ccc4F)cc3)cc2[nH]1 = -0.63
• Fc1ccc(-c2c(-c3ccncc3)nc3n2CCS3)cc1 = 8.73
• COc1ccc(C2=C(N3CCc4ccccc43)C(=O)NC2=O)cc1 = 0.56
• FC(F)(F)c1cccc(Nc2nccc(-c3cnn4nc(-c5ccccc5)ccc34)n2)c1 = 0.77
• Fc1ccc(-c2ncn(CCCN3CCOCC3)c2-c2ccncc2)cc1 = 1.06
• COc1ccc2cc(-c3c(-c4ccncc4)nc(-c4ccc(S(C)(=O)=O)cc4C)n3C)ccc2c1 = 8.02
• COc1cccc(-n2cnc3c(N/N=C/c4ccncc4)ncnc32)c1 = 0.59
• Nc1nccc(-c2c(-c3ccc(F)cc3)ncn2C2CCC(O)CC2)n1 (stereo not given) = 0.4
